Taken from PubChem BioAssay (EPA / NIEHS).

Read-out: Interferon-gamma inducible Protein 10 (IP10), CXCL10 (gene 3627)
protocol_notes: BSK_hDFCGF_IP10: BioMAP Diversity Plus: hDFCGF Assay for Interferon-gamma inducible Protein 10 (IP10) Biomarker Activity (AID 2283053)
condition_description: primary human foreskin fibroblasts; actives raise or lower the signal
Calls of active or inactive are those of the source. How the source made its calls: active means hit-call score of the fitted dose curve at least 0.9, where 1 is the maximum; inactive means score below 0.9.
Outcome codes: true (1) for active, false (0) for inactive

{"columns": ["molecule", "discrete_label"],
 "data": [
  ["CC(C)=CC1C(C(=O)OCc2coc(Cc3ccccc3)c2)C1(C)C (stereo not given)", "true (1)"],
  ["Cc1c(COC(=O)[C@@H]2[C@H](/C=C(\\Cl)C(F)(F)F)C2(C)C)cccc1-c1ccccc1", "false (0)"],
  ["COC(=O)N(C(=O)N1CO[C@@]2(C(=O)OC)Cc3cc(Cl)ccc3C2=N1)c1ccc(OC(F)(F)F)cc1", "true (1)"],
  ["Cn1c(-c2ccccc2)cc(-c2ccccc2)[n+]1C", "false (0)"],
  ["COc1cc(Cl)c(OC)cc1Cl", "false (0)"],
  ["CC(C)C1(C)N=C(c2ncccc2C(=O)O)NC1=O (stereo not given)", "false (0)"],
  ["CC(C)N1C(=O)c2ccccc2NS1(=O)=O", "true (1)"],
  ["COP(=S)(OC)SCn1nnc2ccccc2c1=O", "false (0)"],
  ["CSC(=O)c1c(C(F)F)nc(C(F)(F)F)c(C(=O)SC)c1CC(C)C", "true (1)"],
  ["O=C(O)c1c(Cl)ccc2cc(Cl)cnc12", "false (0)"],
  ["CN/C(=N\\[N+](=O)[O-])NCc1cnc(Cl)s1", "false (0)"],
  ["CC1(C)C(C(=O)OC(C#N)c2cccc(Oc3ccccc3)c2)C1(C)C (stereo not given)", "false (0)"],
  ["COP(=O)(OC)O/C(C)=C/C(=O)N(C)C", "false (0)"],
  ["Cc1ccc(N=CN(C)C=Nc2ccc(C)cc2C)c(C)c1", "true (1)"],
  ["CC(C)Nc1nc(Cl)nc(NC(C)C)n1", "false (0)"],
  ["CC1(C)CON(Cc2ccccc2Cl)C1=O", "false (0)"],
  ["CCOP(=S)(OCC)Oc1nc(Cl)n(C(C)C)n1", "true (1)"],
  ["CC(C)(C)C(=O)C(Oc1ccc(Cl)cc1)n1cncn1 (stereo not given)", "false (0)"],
  ["CCOC(=O)C(C)OC(=O)c1cc(Oc2ccc(C(F)(F)F)cc2Cl)ccc1[N+](=O)[O-] (stereo not given)", "false (0)"],
  ["Nc1c(Cl)c(Cl)nc(C(=O)O)c1Cl", "false (0)"],
  ["COC(=O)NS(=O)(=O)c1ccc(N)cc1", "false (0)"],
  ["CNC(=O)Oc1cccc2ccccc12", "false (0)"],
  ["CS(=O)(=O)c1cc(C(F)(F)F)ccc1C(=O)c1cnoc1C1CC1", "false (0)"],
  ["CO/N=C(/C1=NOCCO1)c1ccccc1Oc1ncnc(Oc2ccccc2Cl)c1F", "false (0)"],
  ["CCCCC(C#N)(Cn1cncn1)c1ccc(Cl)cc1 (stereo not given)", "false (0)"],
  ["CN=C=S", "true (1)"],
  ["C=C(C)CN(CC)c1c([N+](=O)[O-])cc(C(F)(F)F)cc1[N+](=O)[O-]", "true (1)"],
  ["CCOc1nc(C(Cl)(Cl)Cl)ns1", "false (0)"],
  ["COC(=O)NC(=S)Nc1ccccc1NC(=S)NC(=O)OC", "false (0)"],
  ["CCOc1nc(F)cc2nc(S(=O)(=O)Nc3c(Cl)cccc3Cl)nn12", "false (0)"],
  ["CCSC(=O)N1CCCCCC1", "false (0)"],
  ["N#Cc1c[nH]cc1-c1cccc2c1OC(F)(F)O2", "false (0)"],
  ["O=c1n(Cl)c(=O)n(Cl)c(=O)n1Cl", "true (1)"],
  ["N#Cc1c(Cl)cccc1Cl", "false (0)"],
  ["COP(=S)(OC)Oc1ccc([N+](=O)[O-])c(C)c1", "true (1)"]
]}
